B1: PLAGL1 (parent)
chain: DPNKMAFGCEECGKKYNTMLGYKR

variants of: B1; test: protein stability index of a GFP-peptide fusion (GPS, HEK-293T) (PSI 1-6); higher = more stable; conditions: c terminus: a fixed tail appended;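 further: lentivirally expressed fusions sorted by FACS into six bins by GFP to DsRed ratio, PSI derived from sequencing read proportions per bin multiplied by bin number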
protein stability index overview
Write no unit; give the number alone.

See these solved cases before continuing.
• N17R = 2.02
• G13C = 1.97

Now examine the next entry.
Note down protein stability index recorded for A6L 3.02
